species: Rattus norvegicus; assay: Open TG-GATES - Regimen: Single; type: toxicity, organism-based, Sprague-Dawley; design: regimen Single, gender Male, age 6 weeks; conditions: in vivo, po, 30 mg/kg, 24 h, tissue Plasma, route gavage, dose level Middle
assay_readout: ALT (IU/L)
Entry rule: numbers only, all in IU/L.

Could you tell me which ALT is on file for "CN(C)CCN(Cc1cccs1)c1ccccn1" ?
46.4

Next:
Could you tell me which ALT is on file for "CN(C)CCCN1c2ccccc2CCc2ccccc21" ?
45.6

Could you tell me which ALT is on file for "CC1=C(/C=C/C(C)=C/C=C/C(C)=C/CO)C(C)(C)CCC1" ?
42.6

Could you tell me which ALT is on file for "CN(C)CCCN1c2ccccc2CCc2ccc(Cl)cc21" ?
44.2
